Quick reference: % inhibition ApPOL 90' 40 of the listed items.
TESTED SYSTEM: P. falciparum apicoplast DNA polymerase (Pf-apPOL) (Plasmodium falciparum, UniProt Q8ILY1)
Sequence (Q8ILY1 entry or part of it): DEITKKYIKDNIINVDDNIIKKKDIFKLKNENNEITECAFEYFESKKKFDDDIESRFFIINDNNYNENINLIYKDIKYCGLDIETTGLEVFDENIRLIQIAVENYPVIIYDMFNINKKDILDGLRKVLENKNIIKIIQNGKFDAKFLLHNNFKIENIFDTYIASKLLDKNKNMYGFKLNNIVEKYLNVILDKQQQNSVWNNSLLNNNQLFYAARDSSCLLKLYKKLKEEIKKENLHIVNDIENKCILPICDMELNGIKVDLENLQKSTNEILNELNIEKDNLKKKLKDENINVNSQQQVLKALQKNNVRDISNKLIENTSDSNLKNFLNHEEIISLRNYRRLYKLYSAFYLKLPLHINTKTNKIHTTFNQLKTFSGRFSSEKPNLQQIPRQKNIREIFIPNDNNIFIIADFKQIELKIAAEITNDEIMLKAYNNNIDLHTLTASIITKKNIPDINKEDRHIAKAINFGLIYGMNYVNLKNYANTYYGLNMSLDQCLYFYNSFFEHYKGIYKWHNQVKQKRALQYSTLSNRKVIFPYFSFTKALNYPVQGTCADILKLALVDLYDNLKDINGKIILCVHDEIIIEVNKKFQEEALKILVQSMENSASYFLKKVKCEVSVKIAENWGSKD
PROTOCOL TEXT: Fluorescence-based high-throughput DNA polymerase assay (molecular beacon), primary screen and dose-response
Format: biochemical
CONDITION DETAILS: DRC-2; read at 90'; concentration 40
// note: answer is a bare numeric in %

INSERT INTO results (molecule, observed) VALUES
  ('Cc1ccsc1Cn1c(C)ccc1C [Molecule 70, Cc1ccsc1Cn1c(C)ccc1C]', 54),
  ('C#CC(C=CC)OC(=O)c1ccccc1C(=O)O (stereo not shown) [Molecule 61, CC=CC(OC(=O)c1ccccc1C(=O)O)C#C]', 57),
  ('O=C(CCc1csc(NC(=O)Nc2ccccc2)n1)Nc1nc2ccccc2s1 [KU0177354]', 53),
  ('N#Cc1c(O)nc(N2CCCCC2)nc1-c1ccc2c(c1)OCO2 [KU0083146]', 59),
  ('Cn1nc(-c2nc(-c3ccccc3)no2)c2c1CCN(C(=O)Cc1cccs1)C2 [Molecule 58]', 54);

**Q:** Can you share its % inhibition ApPOL 90' 40? I mean this molecule: Cc1cc2[nH]c(C(=O)Nc3ccc(F)cc3)c(CN3CCOCC3)c2s1 [Molecule 60]
**A:** 59

**Q:** Which measured % inhibition ApPOL 90' 40 value corresponds to CC(C)CC(C(=O)O)N1C(=O)C2C3C=CC(C2C1=O)C1C(=O)N(C(CC(C)C)C(=O)O)C(=O)C31 (stereo not shown) [KU0193449] ?
**A:** 34

###

TESTED SYSTEM: bacteriophage T4 DNA polymerase (Enterobacteria phage T4)
Construct: made in house
Sequence (P04415 whole entry): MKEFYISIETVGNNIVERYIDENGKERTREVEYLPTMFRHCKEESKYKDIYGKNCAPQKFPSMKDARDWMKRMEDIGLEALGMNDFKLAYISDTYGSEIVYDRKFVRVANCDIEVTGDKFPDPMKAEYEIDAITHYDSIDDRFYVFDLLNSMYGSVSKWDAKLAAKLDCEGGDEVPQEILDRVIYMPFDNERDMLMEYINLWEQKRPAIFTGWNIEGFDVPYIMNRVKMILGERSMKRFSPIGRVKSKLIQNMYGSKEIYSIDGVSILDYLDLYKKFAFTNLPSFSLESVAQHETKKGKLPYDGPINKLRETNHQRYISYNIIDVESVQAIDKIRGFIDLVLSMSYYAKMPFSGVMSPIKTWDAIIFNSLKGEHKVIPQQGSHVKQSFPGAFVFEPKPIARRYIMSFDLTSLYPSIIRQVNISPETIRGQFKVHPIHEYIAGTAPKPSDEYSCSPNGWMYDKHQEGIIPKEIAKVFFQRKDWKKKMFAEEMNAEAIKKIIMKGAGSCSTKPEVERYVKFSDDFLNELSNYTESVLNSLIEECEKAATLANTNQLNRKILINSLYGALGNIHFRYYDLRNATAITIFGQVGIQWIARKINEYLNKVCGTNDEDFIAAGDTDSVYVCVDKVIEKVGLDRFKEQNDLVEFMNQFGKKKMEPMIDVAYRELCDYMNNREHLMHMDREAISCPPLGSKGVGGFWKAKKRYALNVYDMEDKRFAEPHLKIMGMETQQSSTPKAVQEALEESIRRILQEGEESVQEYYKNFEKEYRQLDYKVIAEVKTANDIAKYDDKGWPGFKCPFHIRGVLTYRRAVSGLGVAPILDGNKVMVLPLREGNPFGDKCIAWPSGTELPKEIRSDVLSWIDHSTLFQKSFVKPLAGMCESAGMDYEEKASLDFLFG
PROTOCOL TEXT: Counter-screen against bacteriophage T4 DNA polymerase
Format: biochemical
CONDITION DETAILS: DRC-2; 10'; concentration 80
Description: Codon-optimized, exonuclease-deficient Pf-apPOL was overexpressed in E. coli BL21 (DE3) and purified as described. The protein was dialysed against two, 1-liter changes of 20 mM Tris-HCl (pH 8.0), 400 mM NaCl, and 20% glycerol. […] Each compound was tested in a dose-response format to determine IC50 values. […] T4 DNA polymerase can be produced in large quantities, and is in the same family (B-family) as the replicative human DNA polymerases (α, δ, and ε)[20].
Quick rule: % inhibition T4 10' of at least -20% means Condition met, below that means Condition not met.

Known results for compounds:
INSERT INTO measurements (compound, class_label) VALUES
  ('O=C(Cc1cc(=O)[nH]c(SCc2ccccc2)n1)Nc1ccc2c(c1)OCO2', 'Condition met'),
  ('CC(NC(=O)Cc1cc(=O)[nH]c(SCc2cccc(Cl)c2)n1)c1ccccc1 (stereo not drawn)', 'Condition met'),
  ('O=C1C(=Cc2ccccc2O)Oc2ccc(O)cc21', 'Condition met'),
  ('O=C1N=C(Nc2cccc(Cl)c2Cl)S/C1=C\c1ccco1 [Molecule 3, O=C1N=C(S/C/1=C\c1ccco1)Nc1cccc(c1Cl)Cl]', 'Condition met'),
  ('O=C(NNC(=O)c1ccc(Cl)cc1)C(=O)NNC(=O)c1ccc(Cl)cc1', 'Condition not met');

**Q:** Given the entry COc1cccc(C(=O)N2CCc3c(nc4cc(-c5ccccc5)[nH]n4c3=O)C2)c1OC , answer whether its % inhibition T4 10' meets or surpasses -20%.
**A:** Condition not met

###

TESTED SYSTEM: P. falciparum apicoplast DNA polymerase (Pf-apPOL) (Plasmodium falciparum)
PROTOCOL TEXT: Fluorescence-based high-throughput DNA polymerase assay (molecular beacon), primary screen and dose-response
Format: biochemical
CONDITION DETAILS: DRC-2; 180'; concentration 20
Binary classification by % inhibition apPOL 180', with 40% as an inclusive lower bound for Met; all other cases are Not met.

INSERT INTO results (compound, class_label) VALUES
  ('COCC(=O)Nc1c(-c2cccc(F)c2)nc2cc(C)ccn12', 'Met');

**Q:** Hello, I need to know if COc1ccc2c(c1)C(c1ccccc1OC)CC(=O)O2 (centres unmarked) has measured % inhibition apPOL 180' not below 40%. Thanks!
**A:** Met

**Q:** Does % inhibition apPOL 180' meet or surpass 40% for COc1ccc(C2CC(c3ccc(Cl)cc3Cl)Nc3nc(N)nn32)cc1OC (centres unmarked) ?
**A:** Not met

**Q:** Check the entry CCCCCCCCCCCCCCCCCC(=O)CCN(C)C : does % inhibition apPOL 180' equal or exceed 40%?
**A:** Not met

**Q:** Identify whether the reported % inhibition apPOL 180' of the following compound is 40% or greater: Cc1ccc(NC(=O)C2CCN(C(=O)c3cc4ccsc4[nH]3)CC2)c(Br)c1
**A:** Met

**Q:** Is the recorded value of % inhibition apPOL 180' equal to or greater than 40% for this compound? CCN1C(=O)C(=Cc2cccc(OC)c2O)SC1=S
**A:** Not met

**Q:** Assess whether reported % inhibition apPOL 180' for CC(C)CCNC(=O)c1cnn2c(O)cc(CSc3ccc(Cl)cc3)nc12 sits at 40% or higher.
**A:** Met

**Q:** # bool: % inhibition apPOL 180' of O=[N+]([O-])/C=C/c1ccc(-c2ccc(Br)cc2)o1 >= 40%
**A:** Met

**Q:** Would you say O=C(NC(C(Cl)Cl)S(=O)(=O)c1ccccc1)c1ccccc1 (centres unmarked) shows % inhibition apPOL 180' at minimum 40%?
**A:** Met

**Q:** Tell me whether % inhibition apPOL 180' is at least 40% here: COc1ccc(NC(=O)Cn2ccc3c(=O)[nH]ccc32)cc1 [Molecule 13, COc1ccc(cc1)NC(=O)Cn1ccc2c1cc[nH]c2=O]
**A:** Met

###

TESTED SYSTEM: UniProt:Q8ILY1
PROTOCOL TEXT: Fluorescence-based high-throughput DNA polymerase assay (molecular beacon), primary screen and dose-response
Type: biochemical
CONDITION DETAILS: DRC-2, 40', concentration 40
Quick reference for % inhibition Apol 40' among some compounds
Form entry: value (%) — number only.

INSERT INTO assay_data (compound, tested_system, value_type, observed) VALUES
  ('CSCCC(C)(O)CNC(=O)C1CC1 (stereo not drawn) [KU0200150]', 'UniProt:Q8ILY1', '% inhibition Apol 40''', 41),
  ('CCOc1ccccc1-c1nc(-c2ccc(=O)[nH]c2)no1 [Molecule 76, CCOc1ccccc1c1onc(n1)c1ccc(=O)[nH]c1]', 'UniProt:Q8ILY1', '% inhibition Apol 40''', 50),
  ('CN(C)C=CC(=O)c1ccccn1 [Molecule 64, CN(C=CC(=O)c1ccccn1)C]', 'UniProt:Q8ILY1', '% inhibition Apol 40''', 53),
  ('CO/N=C(\C(=O)N[C@@H]1C(=O)N2C(C(=O)[O-])=C(CSc3nc(=O)c([O-])nn3C)CSC12)c1csc(N)n1.[Na+].[Na+] (stereo partly drawn) [Molecule 83]', 'UniProt:Q8ILY1', '% inhibition Apol 40''', 37);

Please examine the following record next.
**Q:** Report % inhibition Apol 40' for CSC(C)C(=O)C=CN(C)C (stereo not drawn) [Molecule 71, CSC(C(=O)C=CN(C)C)C] tested on UniProt:Q8ILY1.
**A:** 50

###

TESTED SYSTEM: P. falciparum apicoplast DNA polymerase (Pf-apPOL) (Plasmodium falciparum, UniProt Q8ILY1)
PROTOCOL TEXT: Fluorescence-based high-throughput DNA polymerase assay (molecular beacon), primary screen and dose-response
Type: biochemical
CONDITION DETAILS: DRC-2; 90'; concentration 5
Some compounds, each annotated with its measured % inhibition ApPOL 90'.
Report as a plain number; the unit % is understood.

Example entries and their recorded answers appear below.
INSERT INTO results (compound, value_type, observed) VALUES
  ('Cc1cccc2c(C(=O)NC(C)C)cc(N(C)C)nc12', '% inhibition ApPOL 90''', 11),
  ('Cc1ccc(C(=O)/C=C/C=C/C=C/N(C)C)o1', '% inhibition ApPOL 90''', 23),
  ('O=C(CSc1nc2ccccc2s1)Nc1ncc([N+](=O)[O-])s1', '% inhibition ApPOL 90''', -10);

**Q:** // lookup % inhibition ApPOL 90' for O=c1cc(-c2ccccc2Cl)oc2c(NS(=O)(=O)c3cc(Cl)cc(Cl)c3O)ccc(O)c12
**A:** 0.948

**Q:** // lookup % inhibition ApPOL 90' for COc1ccc(NC(=O)Cn2ccc3c(=O)[nH]ccc32)cc1Cl [Molecule 10, COc1ccc(cc1Cl)NC(=O)Cn1ccc2c1cc[nH]c2=O]
**A:** 45

**Q:** Any idea what % inhibition ApPOL 90' was measured for CC(C)(C)OC(=O)COc1ccc2cc(-c3ccccc3)c(=O)oc2c1 ?
**A:** -14
